conditions: in methyl acetate, 298.15 K
assay endpoint: solubility (mole fraction)
Reply briefly: the number, and no unit.

Find the recorded solubility (mole fraction) belonging to Nc1cccc(C(=O)O)c1 and report it.
0.00918

====

settings: in 1,4-dioxane, 288.15 K
assay endpoint: solubility (mole fraction)
Reply briefly: the number, and no unit.

Find the recorded solubility (mole fraction) belonging to Nc1cccc(C(=O)O)c1 and report it.
0.0319

====

conditions: in acetonitrile, 313.15 K
assay endpoint: solubility (mole fraction)
Reply briefly: the number, and no unit.

Find the recorded solubility (mole fraction) belonging to Nc1cccc(C(=O)O)c1 and report it.
0.00561
